The entries below pair compounds with Ki values for 5-hydroxytryptamine receptor 2A (Homo sapiens, UniProt P28223), as found in several publications.
measure: Ki (nM)

Look over these answered cases.
[
  {
    "compound": "Cc1cccc(N2CCN(CCCCNC(=O)c3ccccc3)CC2)n1",
    "Ki [nM]": 83
  },
  {
    "compound": "CC(Oc1ccccc1Cl)c1nc(N)nc(N2CCN(C)CC2)n1 (stereo not given)",
    "Ki [nM]": 1830
  },
  {
    "compound": "COc1ccc(N2CC=C(c3ccc(Cl)cc3)C2=O)cc1OCCN1CCCCC1",
    "Ki [nM]": 1000
  },
  {
    "compound": "O=C(CCCN1CC[C@H]2[C@@H](C1)c1cccc3c1N2CCCS3)c1ccc(F)cc1",
    "Ki [nM]": 2.5
  },
  {
    "compound": "COc1ccc(Cc2c(N)nc(SCCN3CCN(Cc4ccc(C)cc4)CC3)nc2N)cc1",
    "Ki [nM]": 12.5
  },
  {
    "compound": "COc1cc(CN2CCCC2)ccc1OCCCN1CCC(c2noc3cc(F)ccc23)CC1",
    "Ki [nM]": 10.8
  },
  {
    "compound": "Fc1ccc2c(C3CCN(CCCOc4ccc(CN5CCCCC5)cc4F)CC3)noc2c1",
    "Ki [nM]": 6.5
  },
  {
    "compound": "c1ccc2c(c1)Cc1ccccc1[C@H]1OC(CN3CCOCC3)C[C@H]21 (stereo not given in full)",
    "Ki [nM]": 433
  }
]

[a] O=S(=O)(c1cccc2ncccc12)N1CCC(CCN2CCN(c3ccc(Cl)c(Cl)c3)CC2)CC1
[b] O=C(c1ccc(F)cc1)C1CCN(CCn2cnc3c(c2=O)CCCC3)CC1
[c] CC(C)c1ccc2c(c1)CCN2C(=O)Nc1cccnc1
[d] Nc1ccccc1C(=O)CCCN1CC[C@@H]2[C@H](C1)c1cccc3c1N2CCO3
[e] CN(C)CCSc1cccc(C2(O)CCCCC2)n1
// query Please order the records by their reported Ki, lowest number first. In plain terms: list the labels in the order you were asked to.
// result b, d, a, e, c
(b: 7.59 nM, d: 11.9 nM, a: 336 nM, e: 480 nM, c: 2000 nM)
